Test system: OVCAR5 cells
Assay: Solid phase adhesion assay on fibronectin, OVCAR5
Assay type: cell-based
Experimental: Briefly, wells were coated with 10 μg/ml fibronectin diluted in PBS for one hour. 30,000 cells pretreated with compounds for 6 hours were seeded and allowed to attach for 30 minutes. After washing with PBS to remove unattached cells, cells adhering to coated wells were quantified by using the CCK-8 assay (ApexBio), following the manufacturer's protocol. Relative absorbance measured at 496 nm was used to estimate the relative number of the cell attached to fibronectin coated wells.
assayEndpoint: adhesion of cells to fibronectin

1. Cc1cc(N(C)CCOCCC(=O)N[C@H](C(=O)N2C[C@@H](O)C[C@H]2C(=O)NCc2ccc(-c3scnc3C)cc2)C(C)(C)C)nc(Nc2ccc(NC(=O)Cc3ccccc3)cc2)n1 [Compound 12] | did not affect
2. Cc1cc(N(C)CCOCCOCCOCCOCCOCCC(=O)N[C@H](C(=O)N2C[C@@H](O)C[C@H]2C(=O)NCc2ccc(-c3scnc3C)cc2)C(C)(C)C)nc(Nc2ccc(NC(=O)Cc3ccccc3)cc2)n1 [Compound 13] | did not affect

====

system: SKOV3 cells; experiment: Wound-healing (scratch) assay, SKOV3; type: cell-based
assayEndpoint: cell migration, wound-healing assay

1) Cc1cc(N(C)CCOCCSC(C)(C)[C@H](NC(=O)C2(F)CC2)C(=O)N2C[C@H](O)C[C@H]2C(=O)NCc2ccc(-c3scnc3C)cc2)nc(Nc2ccc(NC(=O)Cc3ccccc3)cc2)n1 [Compound P405] | reduce the migration
2) Cc1cc(N(C)CCOCCOCCOCCSC(C)(C)[C@H](NC(=O)C2(F)CC2)C(=O)N2C[C@H](O)C[C@H]2C(=O)NCc2ccc(-c3scnc3C)cc2)nc(Nc2ccc(NC(=O)Cc3ccccc3)cc2)n1 [Compound P404] | reduce the migration

====

# Kd per entry
target: full-length TG2 (Homo sapiens); assay: Isothermal titration calorimetry (ITC) binding to TG2; conditions: titration into TG2 at 30° C., PBS with 1% DMSO; read-out: equilibrium dissociation constant KD (ITC)
Sequence (P21980 whole entry): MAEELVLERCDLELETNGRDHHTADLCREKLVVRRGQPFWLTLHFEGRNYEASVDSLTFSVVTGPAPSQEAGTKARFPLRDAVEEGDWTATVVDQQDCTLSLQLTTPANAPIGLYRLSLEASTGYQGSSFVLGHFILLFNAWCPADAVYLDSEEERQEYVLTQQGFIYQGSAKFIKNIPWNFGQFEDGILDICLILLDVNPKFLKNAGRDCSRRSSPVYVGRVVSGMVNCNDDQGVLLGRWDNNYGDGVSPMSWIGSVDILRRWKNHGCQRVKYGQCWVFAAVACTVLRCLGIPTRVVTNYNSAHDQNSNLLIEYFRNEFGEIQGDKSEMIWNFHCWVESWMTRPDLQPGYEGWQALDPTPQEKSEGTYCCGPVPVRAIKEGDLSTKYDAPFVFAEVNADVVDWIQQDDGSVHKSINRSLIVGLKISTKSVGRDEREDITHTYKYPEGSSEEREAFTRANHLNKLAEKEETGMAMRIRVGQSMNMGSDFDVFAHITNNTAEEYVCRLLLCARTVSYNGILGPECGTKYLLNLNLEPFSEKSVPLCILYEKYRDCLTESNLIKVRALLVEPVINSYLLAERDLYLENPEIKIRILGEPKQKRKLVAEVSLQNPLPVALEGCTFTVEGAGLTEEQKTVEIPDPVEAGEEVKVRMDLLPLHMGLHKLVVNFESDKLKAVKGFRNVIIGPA
Answer format: numeric, µM implied, no suffix.

1. Cc1cc(N(C)CCOCCOCCOCCOCCOCCC(=O)N[C@H](C(=O)N2C[C@H](O)C[C@H]2C(=O)NCc2ccc(-c3scnc3C)cc2)C(C)(C)C)nc(Nc2ccc(NC(=O)Cc3ccccc3)cc2)n1 | 68.9

Please find the next compound below.
Kd lookup needed for Cc1cc(N(C)C)nc(Nc2ccc(NC(=O)Cc3ccccc3)cc2)n1 [MT4, reference compound] , thanks.
7.8
